Cited source for all entries: ChEMBL document CHEMBL1133061

Molecular target: Mitochondrial complex I; NADH oxidoreductase (Bos taurus, UniProt P25708+P52505)
Sequence (P25708 21-464 limits assumed, other chains not shown): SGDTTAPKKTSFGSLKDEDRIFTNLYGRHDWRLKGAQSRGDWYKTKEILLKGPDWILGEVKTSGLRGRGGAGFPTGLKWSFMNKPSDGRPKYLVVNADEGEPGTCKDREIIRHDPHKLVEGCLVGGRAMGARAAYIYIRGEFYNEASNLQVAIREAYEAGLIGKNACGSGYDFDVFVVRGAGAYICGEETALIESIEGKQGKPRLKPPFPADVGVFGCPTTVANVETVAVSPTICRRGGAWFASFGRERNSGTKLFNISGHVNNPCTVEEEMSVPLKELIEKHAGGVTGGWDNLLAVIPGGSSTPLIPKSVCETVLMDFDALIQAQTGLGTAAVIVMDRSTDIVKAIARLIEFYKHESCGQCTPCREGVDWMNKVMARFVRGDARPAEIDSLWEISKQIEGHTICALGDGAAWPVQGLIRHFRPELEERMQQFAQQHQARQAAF
Assay: Inhibitory concentration against NADH oxidase
Metric: IC50 (nM)

[[record]]
compound = "COc1cc2c(cc1OCc1ccccc1)CCN(P(=O)(OC(C)C)OC(C)C)C2Cc1ccccc1 (centres undefined)"
metric = "IC50"
units_of_measure = "nM"
experimental_result = 1690

[[record]]
compound = "COc1cc2c(cc1OCc1ccccc1)CCN=C2Cc1ccccc1"
metric = "IC50"
units_of_measure = "nM"
experimental_result = 2910

[[record]]
compound = "COc1cc2c(cc1OCc1ccccc1)CCN(C)C2Cc1ccccc1 (centres undefined)"
metric = "IC50"
units_of_measure = "nM"
experimental_result = 2700

[[record]]
compound = "COc1cc2c(cc1OCc1ccccc1)CCNC2Cc1ccccc1 (centres undefined)"
metric = "IC50"
units_of_measure = "nM"
experimental_result = 3880

